System: Hepatotoxicity
Assay: FDA HLAED, gamma-glutamyl transferase (GGT) increase
Conditions: human
PARAMETER MEASURED: GGT Increase - Number of Reports

Please review the entries below; each comes with its answer.
Enquiry: Determine its reported GGT Increase - Number of Reports: C[N+](C)(C)CCO.Cn1c(=O)c2[n-]cnc2n(C)c1=O [OXTRIPHYLLINE]
Return: < 4

Enquiry: Determine its reported GGT Increase - Number of Reports: CC(C)c1c(C(=O)Nc2ccccc2)c(-c2ccccc2)c(-c2ccc(F)cc2)n1CC[C@@H](O)C[C@@H](O)CC(=O)O [ATORVASTATIN]
Return: >= 4

Enquiry: Determine its reported GGT Increase - Number of Reports: CC1=C(/C=C/C(C)=C/C=C/C(C)=C\C(=O)O)C(C)(C)CCC1 [ISOTRETINOIN]
Return: < 4

Enquiry: Determine its reported GGT Increase - Number of Reports: NC(N)=Nc1nc(CSCCC(N)=NS(N)(=O)=O)cs1 [FAMOTIDINE]
Return: >= 4

Enquiry: Determine its reported GGT Increase - Number of Reports: COc1ccc(OC)c(C(O)CNC(=O)CN)c1 (configuration not stated) [MIDODRINE]
Return: < 4

---
Enquiry: Determine its reported GGT Increase - Number of Reports: C=CCN1C[C@H](C(=O)N(CCCN(C)C)C(=O)NCC)C[C@@H]2c3cccc4[nH]cc(c34)C[C@H]21 [CABERGOLINE]
Return: < 4

Enquiry: Determine its reported GGT Increase - Number of Reports: CC(=O)O[C@H]1C[C@@H]2CC[C@@H]3[C@H](CC[C@@]4(C)[C@H]3C[C@H]([N+]3(C)CCCCC3)[C@@H]4OC(C)=O)[C@@]2(C)C[C@@H]1N1CCCCC1.[Br-] [VECURONIUM BROMIDE]
Return: < 4

---

System: Hepatotoxicity
Assay: FDA HLAED, serum glutamic oxaloacetic transaminase (SGOT) increase
Conditions: human
PARAMETER MEASURED: SGOT Increase - Activity Score

Please review the entries below; each comes with its answer.
Enquiry: Determine its reported SGOT Increase - Activity Score: CCCCNc1cc(C(=O)O)cc(S(N)(=O)=O)c1Oc1ccccc1 [BUMETANIDE]
Return: Inactive

Enquiry: Determine its reported SGOT Increase - Activity Score: `COC1=CC(=O)C[C@@H](C)[C@]12Oc1c(Cl)c(OC)cc(OC)c1C2=O`
Return: Active

Enquiry: Determine its reported SGOT Increase - Activity Score: `C[C@@H]1C[C@H]2[C@@H]3CCC4=CC(=O)C=C[C@]4(C)[C@@]3(Cl)[C@@H](O)C[C@]2(C)[C@@]1(O)C(=O)CCl`
Return: Inactive

Enquiry: Determine its reported SGOT Increase - Activity Score: `CN1CCC[C@H]1c1cccnc1`
Return: Inactive

---
Enquiry: Determine its reported SGOT Increase - Activity Score: CC(C)NCC(O)COc1cccc2[nH]ccc12 (configuration not stated)
Return: Inactive

Enquiry: Determine its reported SGOT Increase - Activity Score: `Nc1cc(N2CCCCC2)nc(N)[n+]1[O-]`
Return: Inactive

Enquiry: Determine its reported SGOT Increase - Activity Score: `Cc1cccc(Nc2ccccc2C(=O)O)c1C`
Return: Active

Enquiry: Determine its reported SGOT Increase - Activity Score: CC(Cc1ccc(O)c(O)c1)C(C)Cc1ccc(O)c(O)c1 (configuration not stated) [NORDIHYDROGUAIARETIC ACID]
Return: Inactive

Enquiry: Determine its reported SGOT Increase - Activity Score: CCCCCCCCCCCCCCCCCC(=O)O.CC[C@H]1OC(=O)[C@H](C)[C@@H](O[C@H]2C[C@@](C)(OC)[C@@H](O)[C@H](C)O2)[C@H](C)[C@@H](O[C@@H]2O[C@H](C)C[C@H](N(C)C)[C@H]2OC(C)=O)[C@](C)(O)C[C@@H](C)C(=O)[C@H](C)[C@@H](O)[C@]1(C)O [ERYTHROMYCIN ACISTRATE]
Return: Active

---

Tested on: Hepatotoxicity
Assay: FDA HLAED, serum glutamic oxaloacetic transaminase (SGOT) increase
Conditions: human
PARAMETER MEASURED: SGOT Increase - Index Value
Lab note: record the figure alone, no unit after it.

Please review the entries below; each comes with its answer.
Enquiry: Determine its reported SGOT Increase - Index Value: `Cc1nnc2n1-c1ccc(Cl)cc1C(c1ccccc1)=NC2`
Return: 0.7

Enquiry: Determine its reported SGOT Increase - Index Value: CC(NC(C)(C)C)C(=O)c1cccc(Cl)c1 (stereo unspecified)
Return: 0

Enquiry: Determine its reported SGOT Increase - Index Value: `COc1ccc(CCN2CCC(Nc3nc4ccccc4n3Cc3ccc(F)cc3)CC2)cc1`
Return: 2.6

Enquiry: Determine its reported SGOT Increase - Index Value: `CC(C)(C#N)c1cc(Cn2cncn2)cc(C(C)(C)C#N)c1`
Return: 16.1

Enquiry: Determine its reported SGOT Increase - Index Value: `O=C(O)[C@@H](S)[C@@H](S)C(=O)O`
Return: 175.4

Enquiry: Determine its reported SGOT Increase - Index Value: O=[N+]([O-])O[C@@H]1CO[C@H]2[C@@H]1OC[C@@H]2O [ISOSORBIDE MONONITRATE]
Return: 0.2

Enquiry: Determine its reported SGOT Increase - Index Value: CCN(CC)CCNC(=O)c1cc(Cl)c(N)cc1OC [METOCLOPRAMIDE]
Return: 0

Enquiry: Determine its reported SGOT Increase - Index Value: `CC(=O)OCC1=C(C(=O)O)N2C(=O)[C@@H](NC(=O)CSc3ccncc3)[C@H]2SC1`
Return: 0

Enquiry: Determine its reported SGOT Increase - Index Value: `C[C@H](O)C(=O)Nc1c(I)c(C(=O)NC(CO)CO)c(I)c(C(=O)NC(CO)CO)c1I`
Return: 526.3

Enquiry: Determine its reported SGOT Increase - Index Value: `C=CC1=C(C(=O)O)N2C(=O)[C@@H](NC(=O)/C(=N\OCC(=O)O)c3csc(N)n3)[C@H]2SC1`
Return: 0.4

---
Enquiry: Determine its reported SGOT Increase - Index Value: CCCCCCC(C)(C)c1cc(O)c2c(c1)OC(C)(C)C1CCC(=O)CC21 (stereo unspecified)
Return: 0

Enquiry: Determine its reported SGOT Increase - Index Value: `C[C@@H]1C[C@H]2[C@H]3[C@H]([C@@H](O)C[C@]2(C)[C@@]1(O)C(=O)CO)[C@@]1(C)C=CC(=O)C=C1C[C@H]3Cl`
Return: 0

Enquiry: Determine its reported SGOT Increase - Index Value: `O=C1CN(/N=C/c2ccc([N+](=O)[O-])o2)C(=O)N1`
Return: 52

Enquiry: Determine its reported SGOT Increase - Index Value: `Cc1nc2n(c(=O)c1CCN1CCC(c3noc4cc(F)ccc34)CC1)CCCC2`
Return: 4.8

---

Test system: Hepatotoxicity
Experiment: FDA HLAED, alkaline phosphatase increase
Conditions: human
PARAMETER MEASURED: Alkaline Phosphatase Increase - Number of Reports

Please review the entries below; each comes with its answer.
Enquiry: Determine its reported Alkaline Phosphatase Increase - Number of Reports: CC1Cc2ccccc2N1NC(=O)c1ccc(Cl)c(S(N)(=O)=O)c1 (centres undefined) [INDAPAMIDE]
Return: < 4

Enquiry: Determine its reported Alkaline Phosphatase Increase - Number of Reports: Cc1cccc(C)c1NC(=O)C(C)N (centres undefined) [TOCAINIDE]
Return: >= 4

Enquiry: Determine its reported Alkaline Phosphatase Increase - Number of Reports: CC(=O)Oc1c(C)cc(OCC(O)CNC(C)C)c(C)c1C (centres undefined)
Return: < 4

Enquiry: Determine its reported Alkaline Phosphatase Increase - Number of Reports: `CC(=O)OCC(CCn1cnc2cnc(N)nc21)COC(C)=O`
Return: < 4

Enquiry: Determine its reported Alkaline Phosphatase Increase - Number of Reports: `O=C(O)c1cn(C2CC2)c2cc(N3CCNCC3)c(F)cc2c1=O`
Return: >= 4

Enquiry: Determine its reported Alkaline Phosphatase Increase - Number of Reports: `Clc1cccc(Cl)c1N=C1NCCN1`
Return: >= 4

Enquiry: Determine its reported Alkaline Phosphatase Increase - Number of Reports: `Oc1ncnc2[nH]ncc12`
Return: >= 4

Enquiry: Determine its reported Alkaline Phosphatase Increase - Number of Reports: `Nc1cc(N2CCCCC2)nc(N)[n+]1[O-]`
Return: >= 4

---
Enquiry: Determine its reported Alkaline Phosphatase Increase - Number of Reports: `C=C1c2c(Cl)ccc(O)c2C(=O)C2=C(O)[C@]3(O)C(=O)C(C(N)=O)=C(O)[C@@H](N(C)C)[C@@H]3[C@@H](O)[C@H]12`
Return: < 4

Enquiry: Determine its reported Alkaline Phosphatase Increase - Number of Reports: CC(CCc1ccc(O)cc1)NCCc1ccc(O)c(O)c1 (centres undefined)
Return: < 4

Enquiry: Determine its reported Alkaline Phosphatase Increase - Number of Reports: `FCOC(C(F)(F)F)C(F)(F)F`
Return: < 4

Enquiry: Determine its reported Alkaline Phosphatase Increase - Number of Reports: `CC(C)[C@H](N)C(=O)OCCOCn1cnc2c(=O)[nH]c(N)nc21`
Return: < 4

Enquiry: Determine its reported Alkaline Phosphatase Increase - Number of Reports: `O=C1CC2(CCCC2)CC(=O)N1CCCCN1CCN(c2ncccn2)CC1`
Return: >= 4

Enquiry: Determine its reported Alkaline Phosphatase Increase - Number of Reports: `Cc1ccnc2c1NC(=O)c1cccnc1N2C1CC1`
Return: >= 4

Enquiry: Determine its reported Alkaline Phosphatase Increase - Number of Reports: COCC(=O)Nc1c(I)c(C(=O)NCC(O)CO)c(I)c(C(=O)N(C)CC(O)CO)c1I (centres undefined) [IOPROMIDE]
Return: < 4

Enquiry: Determine its reported Alkaline Phosphatase Increase - Number of Reports: `CO[C@@]1(NC(=O)CSCC#N)C(=O)N2C(C(=O)O)=C(CSc3nnnn3C)CS[C@@H]21`
Return: < 4

Enquiry: Determine its reported Alkaline Phosphatase Increase - Number of Reports: CC(C)NCC(O)COc1cccc2[nH]ccc12 (centres undefined)
Return: < 4

Enquiry: Determine its reported Alkaline Phosphatase Increase - Number of Reports: COCCc1ccc(OCC(O)CNC(C)C)cc1 (centres undefined)
Return: >= 4

Enquiry: Determine its reported Alkaline Phosphatase Increase - Number of Reports: `N=C(N)c1ccc(OCCCCCOc2ccc(C(=N)N)cc2)cc1`
Return: < 4

Enquiry: Determine its reported Alkaline Phosphatase Increase - Number of Reports: CN1CCCC(n2nc(Cc3ccc(Cl)cc3)c3ccccc3c2=O)CC1 (centres undefined)
Return: < 4

Enquiry: Determine its reported Alkaline Phosphatase Increase - Number of Reports: `Cc1ncc2n1-c1ccc(Cl)cc1C(c1ccccc1F)=NC2`
Return: < 4

Enquiry: Determine its reported Alkaline Phosphatase Increase - Number of Reports: Cc1ccc(C(=O)Oc2ccc(C(O)CNC(C)(C)C)cc2OC(=O)c2ccc(C)cc2)cc1 (centres undefined)
Return: < 4

Enquiry: Determine its reported Alkaline Phosphatase Increase - Number of Reports: `Cn1nnnc1SCC1=C(C(=O)O)N2C(=O)[C@@H](NC(=O)[C@H](O)c3ccccc3)[C@H]2SC1`
Return: < 4

Enquiry: Determine its reported Alkaline Phosphatase Increase - Number of Reports: `COc1ccc2cc(CCC(C)=O)ccc2c1`
Return: >= 4

These measurements were taken from ChEMBL document CHEMBL1697781.
